The molecules listed here are annotated with their MIC.
- Tested on: Staphylococcus aureus
- Experiment Summary: Antibacterial activity against methicillin-resistant Staphylococcus aureus USA300 assessed as reduction in microbial growth incubated for 24 hrs by broth microdilution method
- Format: functional
Form entry: value (µg/mL) — number only.

Solved entries:
### Prompt For the molecule CCCCCCCCCCNc1ccccc1C(=O)C[C@@H]1NC(=O)[C@H]([C@H](C)CC(=O)O)NC(=O)[C@@H](CO)NC(=O)CNC(=O)[C@H](CC(=O)O)NC(=O)[C@@H](C)NC(=O)[C@H](CC(=O)O)NC(=O)[C@H](CCCN)NC(=O)CNC(=O)[C@@H](NC(=O)[C@H](CC(=O)O)NC(=O)[C@@H](CC(N)=O)NC(=O)[C@H](Cc2c[nH]c3ccccc23)NC(=O)CCCCCCCCC)[C@@H](C)OC1=O (single isomer, unassigned) , what MIC is on record?
### Response 2

### Prompt What do we get for "CCCCCCCCCC(=O)N[C@@H](Cc1c[nH]c2ccccc12)C(=O)N[C@H](CC(N)=O)C(=O)N[C@@H](CC(=O)O)C(=O)N[C@@H]1C(=O)NCC(=O)N[C@@H](CCCN)C(=O)N[C@@H](CC(=O)O)C(=O)N[C@H](C)C(=O)N[C@@H](CC(=O)O)C(=O)NCC(=O)N[C@H](CO)C(=O)N[C@@H]([C@H](C)CC(=O)O)C(=O)N[C@@H](CC(=O)c2ccccc2NCC(=O)O)C(=O)O[C@@H]1C" ?
### Response 32

### Prompt What do we get for CCCCCCCCCC(=O)N[C@@H](Cc1c[nH]c2ccccc12)C(=O)N[C@H](CC(N)=O)C(=O)N[C@@H](CC(=O)O)C(=O)N[C@@H]1C(=O)NCC(=O)N[C@@H](CCCN)C(=O)N[C@@H](CC(=O)O)C(=O)N[C@H](C)C(=O)N[C@@H](CC(=O)O)C(=O)NCC(=O)N[C@H](CO)C(=O)N[C@@H]([C@H](C)CC(=O)O)C(=O)N[C@@H](CC(=O)c2ccccc2NCCCCC)C(=O)O[C@@H]1C (single isomer, unassigned) ?
### Response 0.125

### Prompt What do we get for "CCCCCCCCCC(=O)N[C@@H](Cc1c[nH]c2ccccc12)C(=O)N[C@H](CC(N)=O)C(=O)N[C@@H](CC(=O)O)C(=O)N[C@@H]1C(=O)NCC(=O)N[C@@H](CCCN)C(=O)N[C@@H](CC(=O)O)C(=O)N[C@H](C)C(=O)N[C@@H](CC(=O)O)C(=O)NCC(=O)N[C@H](CO)C(=O)N[C@@H]([C@H](C)CC(=O)O)C(=O)N[C@@H](CC(=O)c2ccccc2NCc2ccccn2)C(=O)O[C@@H]1C" ?
### Response 4

We now examine a further molecule.
### Prompt For the molecule CCCCCCCCCC(=O)N[C@@H](Cc1c[nH]c2ccccc12)C(=O)N[C@H](CC(N)=O)C(=O)N[C@@H](CC(=O)O)C(=O)N[C@@H]1C(=O)NCC(=O)N[C@@H](CCCN)C(=O)N[C@@H](CC(=O)O)C(=O)N[C@H](C)C(=O)N[C@@H](CC(=O)O)C(=O)NCC(=O)N[C@H](CO)C(=O)N[C@@H]([C@H](C)CC(=O)O)C(=O)N[C@@H](CC(=O)c2ccccc2NCCCCCCCC)C(=O)O[C@@H]1C (single isomer, unassigned) , what MIC is on record?
### Response 1
